From: PubChem BioAssay (NCI)

Reported TGI values for the following compounds.
System: MALME-3M melanoma
experimentalDetails: NCI tumour cell line growth inhibition, 48 h
The response must be a number in µM with no trailing unit.

Reference set (7 entries):
Cc1nc2ccccc2c(N)c1-c1cc(C)c2c(C)nc3ccccc3c2n1	2.59
Cc1cc(C)nc(NS(=O)(=O)c2ccc(NC(=O)c3ccc(Cl)c4c(Nc5ccc(S(=O)(=O)Nc6nc(C)cc(C)n6)cc5)c5ccccc5nc34)cc2)n1	53.5
CCOC(=O)CN1C(=O)c2cccc3cc([N+](=O)[O-])cc(c23)C1=O	5.23
COC(=O)c1cc2c(n1S(=O)(=O)c1ccc(C)cc1)C(=O)C(=O)c1[nH]cc(C(=O)OCc3ccccc3)c1-2	0.115
Cn1c2ccccc2c2c(Nc3ccccc3)c3ccccc3nc21	33.9
Oc1ccc(-c2nc(-c3cccnc3)c(-c3ccc(F)cc3)[nH]2)cc1	32.6
Cn1cnc([N+](=O)[O-])c1Sc1nnc(-c2cccnc2)n1C	33.2

Turning to the following compound.
**Query** Data request, read-out TGI, for O=CN/C=C/c1cc(O)ccc1O
**Result** 35.6
